The measurements presented in this section are drawn from paper PMC9973260.

Form field: pKd (one value per entry).
Biological target: AdmX-LBD (Serratia plymuthica, UniProt P0DV33, E213Q)
Construct: fast monomer-dimer equilibrium shifted toward dimer, dimer in crystal
Sequence (P0DV33 69-295 E213Q): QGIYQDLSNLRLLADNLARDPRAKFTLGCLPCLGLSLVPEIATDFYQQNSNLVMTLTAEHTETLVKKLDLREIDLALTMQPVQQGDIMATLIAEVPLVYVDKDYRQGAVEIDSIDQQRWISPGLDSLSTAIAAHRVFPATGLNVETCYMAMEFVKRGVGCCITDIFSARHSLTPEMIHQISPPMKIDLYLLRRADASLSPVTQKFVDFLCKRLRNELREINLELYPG
Assay: isothermal titration calorimetry
Details: read-out: dissociation constant
Keep it numeric: pKd is minus log10 of the concentration in mol/L.

What does the data say about its pKd? Entry: O=C(O)C(=O)Cc1c[nH]c2ccccc12 5.22

What does the data say about its pKd? Entry: O=C(O)Cc1c[nH]c2ccccc12 4.62

----------
Target: AdmX-LBD (Serratia plymuthica, UniProt P0DV33, C100S)
Construct: fast monomer-dimer equilibrium shifted toward dimer, dimer in crystal
Experiment: isothermal titration calorimetry
Details: read-out: dissociation constant
Endpoint name: pKd
Keep it numeric: pKd is minus log10 of the concentration in mol/L.

Compound	pKd
O=C(O)C(=O)Cc1c[nH]c2ccccc12 [indole-3-pyruvic acid]	4.50

What does the data say about its pKd? Entry: O=C(O)Cc1c[nH]c2ccccc12 [indole-3-acetic acid] 4.29
